Origin of measurements: paper PMC9943626

- System: WD + CCL4 mouse model
- procedure-summary: WD + CCL4 mouse model, biochemical, liver weight ratio and liver pathology
- Format: in vivo, C57/B6 mouse
- experimental-setup: WD + CCL4 mouse serum; 30 mg/kg (H) oral once a day 4 weeks; mean ± SD; model 345 ± 268, normal 334 ± 193

{"columns": ["record-smiles", "CK activity, U/L"],
 "data": [
  ["N#Cc1nn(-c2cc(Br)c(Oc3n[nH]c(=O)c4ccccc34)c(Br)c2)c(=O)[nH]c1=O", 280]
]}

====

- procedure-summary: Tissue distribution in SD rat
- Type: in vivo
- experimental-setup: male, serum, 10 mg/kg oral gavage once, 8H, read-out: Serum concentration
Measured concentration at 8 h values are reported for all entries that follow.

{"columns": ["compound", "concentration at 8 h / ng/mL"],
 "data": [
  ["CC(C)c1cc(Oc2c(Cl)cc(-n3nc(C#N)c(=O)[nH]c3=O)cc2Cl)n[nH]c1=O [MGL3196, reference compound]", 506],
  ["N#Cc1nn(-c2cc(Br)c(Oc3n[nH]c(=O)c4ccccc34)c(Br)c2)c(=O)[nH]c1=O [CS27109]", 3620]
]}

====

- Test system: WD + CCL4 mouse model
- procedure-summary: WD + CCL4 mouse model, biochemical, liver weight ratio and liver pathology
- Assay type: in vivo, C57/B6 mouse
- experimental-setup: WD + CCL4 mouse serum; 10 mg/kg (CS27109-M, MGL-3196) oral once a day 4 weeks; mean ± SD; model 345 ± 268, normal 334 ± 193
Measured CK activity values are reported for all entries that follow.
readout-type: CK activity (U/L)

{"columns": ["compound", "recorded-number"],
 "data": [
  ["CC(C)c1cc(Oc2c(Cl)cc(-n3nc(C#N)c(=O)[nH]c3=O)cc2Cl)n[nH]c1=O [MGL3196, reference compound]", 197],
  ["N#Cc1nn(-c2cc(Br)c(Oc3n[nH]c(=O)c4ccccc34)c(Br)c2)c(=O)[nH]c1=O", 201]
]}

====

Measured concentration at 2 h values are reported for all entries that follow.
- procedure-summary: Tissue distribution in SD rat
- Type: in vivo
- experimental-setup: male, heart, 10 mg/kg oral gavage once, 2H, read-out: Heart concentration
readout-type: concentration at 2 h (ng/g)

{"columns": ["compound", "unit-string", "recorded-number"],
 "data": [
  ["CC(C)c1cc(Oc2c(Cl)cc(-n3nc(C#N)c(=O)[nH]c3=O)cc2Cl)n[nH]c1=O [MGL3196, reference compound]", "ng/g", 156],
  ["N#Cc1nn(-c2cc(Br)c(Oc3n[nH]c(=O)c4ccccc34)c(Br)c2)c(=O)[nH]c1=O", "ng/g", 95.7]
]}

====

- procedure-summary: Tissue distribution in SD rat
- Type: in vivo
- experimental-setup: male, serum, 10 mg/kg oral gavage once, 2H, read-out: Serum concentration
Measured concentration at 2 h values are reported for all entries that follow.

{"columns": ["compound", "concentration at 2 h"],
 "data": [
  ["CC(C)c1cc(Oc2c(Cl)cc(-n3nc(C#N)c(=O)[nH]c3=O)cc2Cl)n[nH]c1=O [MGL3196, reference compound]", "1400 ng/mL"],
  ["N#Cc1nn(-c2cc(Br)c(Oc3n[nH]c(=O)c4ccccc34)c(Br)c2)c(=O)[nH]c1=O [CS27109]", "670 ng/mL"]
]}
